# ASSAY TARGET: AuroraB (Homo sapiens)
# Construct: 20 μL of AuroraB FL H is for a final volume of 41 μL; His
# Sequence (Q96GD4 whole entry): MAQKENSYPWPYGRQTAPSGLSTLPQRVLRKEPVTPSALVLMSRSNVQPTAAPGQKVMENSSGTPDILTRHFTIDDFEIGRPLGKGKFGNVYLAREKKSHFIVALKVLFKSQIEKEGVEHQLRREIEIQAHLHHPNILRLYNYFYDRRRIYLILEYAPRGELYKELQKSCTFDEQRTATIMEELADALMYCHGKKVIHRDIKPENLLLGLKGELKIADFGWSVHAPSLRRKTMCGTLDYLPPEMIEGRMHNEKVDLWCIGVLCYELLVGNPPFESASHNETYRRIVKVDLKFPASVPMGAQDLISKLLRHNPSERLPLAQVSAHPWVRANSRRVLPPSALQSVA
# TEST DESCRIPTION: AuroraB Homogeneous Time Resolved Fluorescent (HTRF) kinase assay
# Assay type: biochemical
# PARTICULARS: average; read-out: AurB_IC50_IP (uM Avg)
# Protocol: AuroraB-Homogeneous Time Resolved Fluorescent (HTRF) Kinase Assay: The AuroraB HTRF assay begins with AuroraB in the presence of ATP phosphorylating the biotinylated peptide Histone H3. […] The assay is quenched and stopped with 160 μL of detection reagent. […] Added to this buffer prior to reading is Steptavidin allophycocyanin (SA-APC) at a final conc in the assay of 0.001 mg/mL, and europilated anti-phosphoHistoneH3 Ab (Eu-anti-HisH3) at a final conc of 0.064 nM. […]
PROPERTY LABEL: IC50 (µM)

MOLECULE	ASSAY VALUE
COc1cnc2c(Oc3ccc(Nc4nnc(N5CCN(S(C)(=O)=O)CC5)c5ccccc45)cc3)ccnc2c1 [compound 607]	0.324
COc1cnc2c(Oc3ccc(Nc4nnc(-c5ccc(F)c(Cl)c5)c5ccccc45)cc3)ccnc2c1 [compound 193]	0.005
O=c1ccc2nccc(Oc3ccc(Nc4nnc(-c5ccc(Cl)cc5)c5ccccc45)cc3)c2[nH]1 [compound 569]	0.013
Fc1cc(F)c2c(Oc3ccc(Nc4nnc(-c5ccccc5)c5ccccc45)cc3)ccnc2c1 [compound 276]	0.018
COCCOc1cc2nccc(Oc3ccc(Nc4nnc(-c5ccccc5)c5ccccc45)cc3)c2cc1OC [Example 393]	0.017
COc1cnc2c(Sc3ccc(Nc4nnc(Cl)c5ccccc45)cc3)ccnc2c1 [compound 536]	0.031

[I] Fc1cc(F)c2c(Sc3ccc(Nc4nnc(-c5ccc(Cl)cc5)c5ccccc45)cc3)ccnc2c1 [compound 342]
[II] COc1ccc2nccc(Oc3ccc(Nc4nnc(-c5ccc(C)cn5)c5ccccc45)cc3)c2c1 [compound 554]
Query block: Which gives the smaller IC50 number: I or II ? Your choice should be expressed through its label.
Result block: II
(II: 0.011 µM, I: 0.045 µM)
